Reported pIC50, RIPK1 (Homo sapiens (Human)).
pIC50: −log10 of the molar value.

CC(C)C(=O)Nc1nc2cc(-c3cn(C)c4ncc(C(=O)N[C@@H](C)c5cccc(F)c5)cc34)ccn2n1 [Compound 159]    6.00 to 7.00
COc1cc(CNC(=O)c2c[nH]c3ccc(-c4ccc5nc(NC(=O)C6CC6)sc5c4)cc23)cc(OC)c1 [Compound 11]    6.00 to 7.00
O=C(NCc1ccc(N2CCOCC2)cc1)c1c[nH]c2ccc(-c3ccc4nc(NC(=O)C5CC5)sc4n3)cc12 [Compound 99]    ≤ 6.00
CC(C)C(=O)Nc1nc2cc(-c3ccc4c(c3)c(C(=O)N[C@H](C)c3ccc(F)cc3)cn4C)ccn2n1 [Compound 132]    6.00 to 7.00
CC(C)C(=O)Nc1nc2cc(-c3ccc4c(c3)c(C(=O)N[C@H](C)c3ccccc3)cn4C)ccn2n1 [Compound 121]    7.00 to 8.00

State recorded pIC50 for all listed compounds.
1. CC(C)C(=O)Nc1nc2cc(-c3ccc4c(c3)c(C(=O)NC(C)c3ccncc3)cn4C)ccn2n1 (stereo not drawn) [Compound 139]
2. COc1cccc([C@H](C)NC(=O)c2c[nH]c3ccc(-c4ccc5nc(NC(=O)C6CC6)sc5c4)cc23)c1 [Compound 38]

Return:
1. 7.00 to 8.00
2. 7.00 to 8.00

State recorded pIC50 for all listed compounds.
1. C[C@H](NC(=O)c1cn(C)c2ccc(-c3ccc4nc(NC(=O)C5CC5)nn4c3)cc12)c1cccc(F)c1 [Compound 155]
2. Cn1cc(C(=O)N2CCC[C@H]2c2ccc(Cl)cc2)c2cc(-c3ccn4nc(NC(=O)C5CC5)nc4c3)ccc21 [Compound 194]

Return:
["7.00 to 8.00", "> 9.00"]

* * *

Would you kindly list pIC50 for each of these compounds?
- system-under-test: RIPK1 (Homo sapiens (Human), UniProt Q13546)
- Sequence (Q13546 whole entry): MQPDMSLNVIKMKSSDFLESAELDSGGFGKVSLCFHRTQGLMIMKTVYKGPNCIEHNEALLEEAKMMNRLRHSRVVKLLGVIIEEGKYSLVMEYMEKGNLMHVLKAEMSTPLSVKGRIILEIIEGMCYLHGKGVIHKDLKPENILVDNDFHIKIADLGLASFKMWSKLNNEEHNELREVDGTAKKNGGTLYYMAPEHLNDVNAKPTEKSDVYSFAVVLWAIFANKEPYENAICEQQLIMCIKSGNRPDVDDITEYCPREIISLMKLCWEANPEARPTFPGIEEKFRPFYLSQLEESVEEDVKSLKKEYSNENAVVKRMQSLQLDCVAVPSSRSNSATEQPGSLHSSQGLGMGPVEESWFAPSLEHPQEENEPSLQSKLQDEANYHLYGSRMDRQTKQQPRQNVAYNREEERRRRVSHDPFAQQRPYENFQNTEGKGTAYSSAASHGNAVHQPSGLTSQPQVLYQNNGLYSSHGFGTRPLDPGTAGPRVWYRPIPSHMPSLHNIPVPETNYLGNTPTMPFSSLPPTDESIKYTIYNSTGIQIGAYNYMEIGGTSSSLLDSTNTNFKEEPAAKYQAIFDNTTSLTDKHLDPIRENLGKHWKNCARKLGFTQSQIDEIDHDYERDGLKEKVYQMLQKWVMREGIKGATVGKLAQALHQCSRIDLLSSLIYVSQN
pIC50: −log10 of the molar value.

Reference set (6 entries):
C[C@H](NC(=O)c1cn(C)c2ccc(-c3ccn4nc(NC(=O)[C@@H]5CCCN5)nc4c3)cc12)c1cccc(F)c1    8.00 to 9.00
CC(NC(=O)c1cn(C)c2ccc(-c3ccn4nc(NC(=O)C5CC5)nc4c3)cc12)c1ccc(F)c(F)c1 (stereo not drawn)    7.00 to 8.00
Nc1ncnn2c(-c3ccc4[nH]nc(C(=O)NCCc5ccc(F)cc5)c4c3)ccc12    7.00 to 8.00
O=C(NCc1ccco1)c1c[nH]c2ccc(-c3ccc4nc(NC(=O)C5CC5)sc4c3)cc12    7.00 to 8.00
CCn1cc(C(=O)N[C@@H](C)c2cccc(F)c2)c2cc(-c3ccn4nc(NC(=O)C5CC5)nc4c3)ccc21    7.00 to 8.00
CCn1cc(C(=O)N[C@H](c2ccc(F)cc2)C2CC2)c2cc(-c3ccn4nc(NC(=O)C5CC5)nc4c3)ccc21    7.00 to 8.00

State recorded pIC50 for all listed compounds.
1. COCC(=O)Nc1nc2ccc(-c3ccc4c(c3)c(C(=O)N[C@@H](C)c3cccc(F)c3)cn4C)cn2n1
2. CCn1cc(C(=O)N2CCC[C@H]2c2ccc(F)cc2)c2cc(-c3ccn4nc(NC(=O)[C@H](C)OC(C)=O)nc4c3)ccc21
3. CC(C)C(=O)Nc1nc2cc(-c3cnc4[nH]cc(C(=O)N[C@@H](C)c5cccc(F)c5)c4c3)ccn2n1
4. C[C@H](NC(=O)c1cn(C)c2ccc(-c3ccc(CN4CCN(C)CC4)cc3)cc12)c1cccc(F)c1
5. CNC(=O)Nc1nc2cc(-c3ccc4c(c3)c(C(=O)N[C@@H](C)c3cccc(F)c3)cn4C)ccn2n1
6. C[C@H](NC(=O)c1cn(C)c2ccc(-c3ccc(C(=O)N4CCOCC4)cc3)cc12)c1cccc(F)c1

Return:
["7.00 to 8.00", "7.00 to 8.00", "7.00 to 8.00", "≤ 6.00", "> 9.00", "≤ 6.00"]
